Tested on: human APOE RNA
Assay info: Dose-dependent inhibition of human APOE RNA in HepG2 cells, electroporation, 50,000 cells per well, RT-PCR normalized to GAPDH (Example 4, Tables 8-10)
Format: cell-based
Recorded conditions: 5 nM; HepG2, electroporation, 16-hour treatment
Strand notation (5' to 3'): a small letter for the sugar, then the base; units joined by * are phosphorothioate-linked, units joined directly phosphodiester-linked; [ ] holds rarer units or linkages, { } end groups; capitals alone tell only the bases. [ms] = mesyl phosphoramidate linkage; e = 2'-O-(2-methoxyethyl) (MOE); k = constrained ethyl (cEt); [5mC] = 5-methylcytosine; d = 2'-deoxy (DNA)
Entries and their APOE RNA (% UTC) values follow.

Completed entries (count: 9):
substance="1757554: mixed MOE/cEt gapmer TTGGTGAATCTTTATTAA, sugar kkeeeddddddddeeeee, linkages soossssssssssooss (kT*kTeGeG*eT*dG*dA*dA*dT*d[5mC]*dT*dT*dT*eAeTeT*eA*eA) [compound 1757554]" attribute_measured="APOE RNA (% UTC)" result="91 % UTC"
substance="1757571 (eA*e[5mC]eTeT*eG*kG*dT*dG[ms]dA[ms]dA[ms]dT*d[5mC]*dT*dT*dT*dA[ms]eT*eT*eA*eA; antisense) [Compound 1757571]" attribute_measured="APOE RNA (% UTC)" result="68 % UTC"
substance="1757564: mixed MOE/cEt gapmer TTGGTGAATCTTTATTAA, sugar eeeekddddddddkeeke, linkages soossssssssssooss (eT*eTeGeG*kT*dG*dA*dA*dT*d[5mC]*dT*dT*dT*kAeTeT*kA*eA) [compound 1757564]" attribute_measured="APOE RNA (% UTC)" result="91 % UTC"
substance="Aes^mCeoTeoTesGesGksTdsGdzAdzAdzTds^mCdsTdsTdsTdsAdzTksTksAesAe (eA*e[5mC]eTeT*eG*kG*dT*dG[ms]dA[ms]dA[ms]dT*d[5mC]*dT*dT*dT*dA[ms]kT*kT*eA*eA) [Compound No. 1757576]" attribute_measured="APOE RNA (% UTC)" result="86 % UTC"
substance="1757586 (eT*eTeGeGkT*dG*dA*dA*dT*d[5mC]*dT*dT*dT*dA*dT*kTkAeA*eA*e[5mC]; antisense) [Compound 1757586]" attribute_measured="APOE RNA (% UTC)" result="202 % UTC"
substance="1757567 (eA*e[5mC]eTeTeG*dG*dT*dG*dA*dA*dT*d[5mC]*dT*dT*dT*kAeTeT*eA*eA; antisense) [Compound 1757567]" attribute_measured="APOE RNA (% UTC)" result="103 % UTC"
substance="1766559 (eT*eTeGeGeT*dG[ms]dA[ms]dA[ms]dT*d[5mC]*dT*dT*dT[ms]dA[ms]dT*kTkAeA*eA*e[5mC]; antisense) [Compound 1766559]" attribute_measured="APOE RNA (% UTC)" result="166 % UTC"
substance="1757557: mixed MOE/cEt gapmer TTGGTGAATCTTTATTAA, sugar eeeeeddddddddeekke, linkages soossssssssssooss (eT*eTeGeG*eT*dG*dA*dA*dT*d[5mC]*dT*dT*dT*eAeTkT*kA*eA) [compound 1757557]" attribute_measured="APOE RNA (% UTC)" result="79 % UTC"
substance="1757568 (eA*e[5mC]eTeTeG*dG*dT*dG*dA*dA*dT*d[5mC]*dT*dT*dT*kAkTeT*eA*eA; antisense) [Compound 1757568]" attribute_measured="APOE RNA (% UTC)" result="86 % UTC"

For the next question, use this substance.
INPUT: Fill blank: measured APOE RNA (% UTC) of the substance 1757585 (eT*eTeGkGkT*dG*dA*dA*dT*d[5mC]*dT*dT*dT*dA*dT*kTeAeA*eA*e[5mC]; antisense) [Compound 1757585] is ____.
OUTPUT: 45 % UTC
